Consider the following compounds; for each one, report its MIC.
- Test system: Bacillus cereus
- ASSAY NOTES: Antimicrobial activity against Bacillus cereus ATCC 14579 after 18 to 20 hrs by microbroth dilution method
- Type: functional

These recorded examples may help you get a feel for the data.
COMPOUND: CC1=C(C(=O)O)N2C(=O)[C@@H](NC(=O)[C@H](N)c3ccccc3)[C@H]2SC1 [CEPHALEXIN ANHYDROUS]
MEASUREMENT LABEL: MIC
MEASURED: > 200 µg/mL

COMPOUND: CC(=O)OCC1=C(C(=O)O)N2C(=O)[C@@H](NC(=O)CCNC(=O)C3=C(O)C(CC(C)C)NC3=O)[C@H]2SC1 (stereo partly drawn)
MEASUREMENT LABEL: MIC
MEASURED: > 200 µg/mL

COMPOUND: CC1=C(C(=O)O)N2C(=O)[C@@H](NC(=O)[C@H](NC(=O)CCNC(=O)C3=C(O)C(CC(C)C)NC3=O)c3ccccc3)[C@H]2SC1 (stereo partly drawn)
MEASUREMENT LABEL: MIC
MEASURED: > 200 µg/mL

COMPOUND: C=CC1=C(C(=O)O)N2C(=O)[C@@H](NC(=O)CCNC(=O)C3=C(O)C(CC(C)C)NC3=O)[C@H]2SC1 (stereo partly drawn)
MEASUREMENT LABEL: MIC
MEASURED: > 200 µg/mL

COMPOUND: CC(C)CC1NC(=O)C(C(=O)NCCCCCC(=O)N[C@@H](C(=O)N[C@@H]2C(=O)N3[C@@H]2SC(C)(C)[C@@H]3C(=O)O)c2ccccc2)=C1O (stereo partly drawn)
MEASUREMENT LABEL: MIC
MEASURED: 50 µg/mL

COMPOUND: CC1=C(C(=O)O)N2C(=O)[C@@H](NC(=O)CCNC(=O)C3=C(O)C(CC(C)C)NC3=O)[C@H]2SC1 (stereo partly drawn)
MEASUREMENT LABEL: MIC
MEASURED: > 200 µg/mL

COMPOUND: CC(C)CC1NC(=O)C(C(=O)NCCC(=O)N[C@@H](C(=O)N[C@@H]2C(=O)N3[C@@H]2SC(C)(C)[C@@H]3C(=O)O)c2ccccc2)=C1O (stereo partly drawn)
MEASUREMENT LABEL: MIC
MEASURED: 25 µg/mL

COMPOUND: CC(C)CC1NC(=O)C(C(=O)NCCCC(=O)N[C@@H](C(=O)N[C@@H]2C(=O)N3[C@@H]2SC(C)(C)[C@@H]3C(=O)O)c2ccccc2)=C1O (stereo partly drawn)
MEASUREMENT LABEL: MIC
MEASURED: 25 µg/mL

COMPOUND: CC1=C(C(=O)O)N2C(=O)[C@@H](NC(=O)[C@H](NC(=O)C3=C(O)C(CC(C)C)NC3=O)c3ccccc3)[C@H]2SC1 (stereo partly drawn)
MEASUREMENT LABEL: MIC
MEASURED: > 200 µg/mL

COMPOUND: CC(C)CC1NC(=O)C(C(=O)NCCC(=O)N[C@@H](C(=O)N[C@@H]2C(=O)N3C(C(=O)O)=C(Cl)CS[C@H]23)c2ccccc2)=C1O (stereo partly drawn)
MEASUREMENT LABEL: MIC
MEASURED: > 200 µg/mL

For each of the compounds below, note its MIC.
1. N[C@@H](C(=O)N[C@@H]1C(=O)N2C(C(=O)O)=C(Cl)CS[C@H]12)c1ccccc1 [CEFACLOR ANHYDROUS]
2. CC(C)CC1NC(=O)C(C(=O)N[C@@H](C(=O)N[C@@H]2C(=O)N3[C@@H]2SC(C)(C)[C@@H]3C(=O)O)c2ccccc2)=C1O (stereo partly drawn)
3. CC1(C)S[C@@H]2[C@H](NC(=O)[C@H](N)c3ccccc3)C(=O)N2[C@H]1C(=O)O [AMPICILLIN]

1: > 200 µg/mL; 2: 12.5 µg/mL; 3: 25 µg/mL

Recorded values, source ChEMBL document CHEMBL4229518.
